# Tested on: human lung cancer cell line A549
# EXPERIMENTAL_DETAILS: MTT-based cytotoxicity assay
# Format: cell-based
# CONDITION_CONTEXT: Homo sapiens; A549, MTT, up to 100 µg/mL, average of three independent experiments
READOUT_LABEL: IC50 (µg/mL)
Express the result in µg/mL but write the number alone.

[Q] Which IC50 is reported with human lung cancer cell line A549 for this entry: O=CN1N=C(c2ccc(-n3cccc3)cc2)CC1c1cccc(Oc2ccccc2)c1 (centres unmarked) ?
[A] 72.9

[Q] Which IC50 is reported with human lung cancer cell line A549 for this entry: O=CN1N=C(c2ccc(-n3cccc3)cc2)CC1c1ccc(Cl)cc1 (centres unmarked) ?
[A] 75.6

[Q] Which IC50 is reported with human lung cancer cell line A549 for this entry: COc1ccc(C2CC(c3ccc(-n4cccc4)cc3)=NN2C=O)cc1OC (centres unmarked) ?
[A] 70.4

[Q] Which IC50 is reported with human lung cancer cell line A549 for this entry: O=CN1N=C(c2ccc(-n3cccc3)cc2)CC1c1cccc(Br)c1 (centres unmarked) ?
[A] 76

[Q] Which IC50 is reported with human lung cancer cell line A549 for this entry: COc1cccc(C2CC(c3ccc(-n4cccc4)cc3)=NN2C=O)c1 (centres unmarked) ?
[A] 76.5

[Q] Which IC50 is reported with human lung cancer cell line A549 for this entry: CC(=O)O[C@H]1C(=O)[C@@]2(C)[C@H]([C@H](OC(=O)c3ccccc3)[C@]3(O)C[C@H](OC(=O)[C@H](O)[C@@H](NC(=O)c4ccccc4)c4ccccc4)C(C)=C1C3(C)C)[C@]1(OC(C)=O)CO[C@@H]1C[C@@H]2O [paclitaxel, reference compound] ?
[A] 47.6

[Q] Which IC50 is reported with human lung cancer cell line A549 for this entry: CC(C)c1ccc(C2CC(c3ccc(-n4cccc4)cc3)=NN2C=O)cc1 (centres unmarked) ?
[A] 71.1

[Q] Which IC50 is reported with human lung cancer cell line A549 for this entry: COc1ccc(C2CC(c3ccc(-n4cccc4)cc3)=NN2C=O)c(OC)c1 (centres unmarked) ?
[A] 73.3

Hey, just so you know, these numbers are from paper PMC5676022.
